- Assay Notes: Photostability, percentage remaining undegraded under illumination or in the dark
- Conditions: percentage remaining undegraded in the dark, 24 h
Measured Metric: Photostability Dark (24 h) (%)
Give the value in % but do not write % after it.

Molecule: Cc1cc2c(cc1C)C(=O)[C@]1(O)CCN(c3ccc4scnc4c3)C1=N2 [BPN-0027121]
Photostability Dark (24 h) (%): 98.6
--
Molecule: Cc1cc2c(cc1C)C(=O)[C@]1(O)CCN(c3ccc(C#N)c(C)c3)C1=N2 [BPN-0026661]
Photostability Dark (24 h) (%): 98.2
--
Molecule: Cc1cc2c(cc1C)C(=O)[C@]1(O)CCN(c3cnc4c(c3)CCCC4)C1=N2 [BPN-0028920]
Photostability Dark (24 h) (%): 98.4

Now for the molecule whose Photostability Dark (24 h) we want.
Request: Record request: Photostability Dark (24 h) value, item Cc1cc2c(cc1C)C(=O)[C@]1(O)CCN(c3cnc4c(c3)OCCN4)C1=N2 [BPN-0028821]
Response: 98.5
